# Read-out: Interleukin-1 alpha (IL1a), IL1A (gene 3552)
# procedure-text: BSK_LPS_IL1a: BioMAP Diversity Plus: LPS Assay for Interleukin-1 alpha (IL1a) Biomarker Activity (AID 2283080)
# recorded-conditions: primary human HUVEC with PBMC; actives raise or lower the signal
The source made the active and inactive calls. How the source made its calls: active means hit-call score of the fitted dose curve at least 0.9, where 1 is the maximum; inactive means score below 0.9.
One label from this list, please: yes (1) (active), no (0) (inactive)

Hey, what did the test say about "CCNC(=O)NC(=O)C(C#N)=NOC" ?
no (0)

Item: "Cc1nc(N(C)C)nc(OC(=O)N(C)C)c1C"
no (0)

Item: "N#Cc1c[nH]cc1-c1cccc2c1OC(F)(F)O2"
yes (1)

Item: "COP(=S)(OC)SCn1nnc2ccccc2c1=O"
no (0)

Item: "O=c1n(Cl)c(=O)n(Cl)c(=O)n1Cl"
no (0)

Item: CCCCC(C#N)(Cn1cncn1)c1ccc(Cl)cc1 (configuration not stated)
no (0)

Item: CC(C)=CC1C(C(=O)OCc2coc(Cc3ccccc3)c2)C1(C)C (configuration not stated)
no (0)
